- STUDY_TARGET: hNEU2 (Homo sapiens, UniProt Q9Y3R4)
- Sequence (Q9Y3R4 whole entry): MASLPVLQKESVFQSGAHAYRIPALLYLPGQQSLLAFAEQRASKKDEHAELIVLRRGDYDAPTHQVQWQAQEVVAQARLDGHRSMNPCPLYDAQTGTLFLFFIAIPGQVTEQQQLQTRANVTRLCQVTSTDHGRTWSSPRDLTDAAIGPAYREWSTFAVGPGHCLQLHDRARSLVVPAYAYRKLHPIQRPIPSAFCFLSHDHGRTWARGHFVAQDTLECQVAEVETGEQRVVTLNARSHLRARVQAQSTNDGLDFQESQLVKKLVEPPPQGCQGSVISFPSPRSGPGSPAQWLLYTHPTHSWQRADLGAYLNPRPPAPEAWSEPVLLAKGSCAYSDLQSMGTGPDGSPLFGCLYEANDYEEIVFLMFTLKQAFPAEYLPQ
- EXPERIMENT_NOTES: Sialidase inhibition assay (Example 7)
- Format: biochemical
- EXPERIMENTAL_CONDITIONS: 1 mM of each inhibitor; substrate Neu5Acα2-3GalβpNP 0.3 mM; pH 5.0; read-out: Percentage inhibition (%) against hNEU2
OBSERVED_PROPERTY: inhibition at 1000 µM (%)
Quick note: give the figure in %, leave out the unit.

{"GIVEN_SMILES": "O=C(O)[C@@]12C[C@@H](O)[C@@H](NC3CCCCC3)C(O1)[C@@H]([C@H](O)CO)O2", "inhibition at 1000 µM / %": 3.6}
{"GIVEN_SMILES": "N[C@H]1[C@H]2O[C@@](C(=O)O)(C[C@@H]1O)O[C@@H]2[C@H](O)CO", "inhibition at 1000 µM / %": 1.4}
{"GIVEN_SMILES": "CC(=O)N[C@H]1[C@H]2O[C@@](C(=O)O)(C[C@@H]1O)O[C@@H]2[C@H](O)CO", "inhibition at 1000 µM / %": 4.6}

query: Given the entry O=C(N[C@H]1[C@H]2O[C@@](C(=O)O)(C[C@@H]1O)O[C@@H]2[C@H](O)CO)C(F)(F)F , report its measured inhibition at 1000 µM.
result: 2.5

* * *

- STUDY_TARGET: hNEU2 (Homo sapiens, UniProt Q9Y3R4)
- EXPERIMENT_NOTES: Sialidase inhibition assay (Example 4)
- Type: biochemical
- EXPERIMENTAL_CONDITIONS: pH 5, 0.1 mM of each inhibitor, substrate Neu5Acα2-3GalβpNP 0.3 mM, read-out: Percentage inhibition (%) against hNEU2
OBSERVED_PROPERTY: inhibition at 100 µM

See these solved cases before continuing.
{"MOLECULE": "CCCCC(=O)NC[C@@H](O)[C@@H](O)[C@@H]1OC(C(=O)O)=C[C@H](O)[C@H]1NC(C)=O", "inhibition at 100 µM": "19%"}
{"MOLECULE": "O=C(CO)N[C@@H]1C(O)C=C(C(=O)O)OC1[C@H](O)[C@H](O)CO (stereo partly drawn)", "inhibition at 100 µM": "> 50%"}
{"MOLECULE": "CC(=O)N[C@@H]1C(O)C=C(C(=O)O)OC1C[C@H](O)CO (stereo partly drawn)", "inhibition at 100 µM": "42%"}
{"MOLECULE": "CC(=O)N[C@@H]1C(O)C=C(C(=O)O)OC1[C@H](O)[C@H](O)CNC(=O)C1CC1 (stereo partly drawn)", "inhibition at 100 µM": "17%"}
{"MOLECULE": "CC(=O)NC[C@@H](O)[C@@H](O)[C@@H]1OC(C(=O)O)=C[C@H](O)[C@H]1NC(C)=O", "inhibition at 100 µM": "27%"}

query: Looking for the measured inhibition at 100 µM of O=C(Cc1ccccc1)N[C@H]1[C@H]([C@H](O)[C@H](O)CO)OC(C(=O)O)=C[C@@H]1O , can you help?
result: 81%

* * *

- STUDY_TARGET: BiNanH2 (Bifidobacterium longum subsp. infantis, UniProt A0ACD7UU12)
- Sequence (A0ACD7UU12 entry or part of it): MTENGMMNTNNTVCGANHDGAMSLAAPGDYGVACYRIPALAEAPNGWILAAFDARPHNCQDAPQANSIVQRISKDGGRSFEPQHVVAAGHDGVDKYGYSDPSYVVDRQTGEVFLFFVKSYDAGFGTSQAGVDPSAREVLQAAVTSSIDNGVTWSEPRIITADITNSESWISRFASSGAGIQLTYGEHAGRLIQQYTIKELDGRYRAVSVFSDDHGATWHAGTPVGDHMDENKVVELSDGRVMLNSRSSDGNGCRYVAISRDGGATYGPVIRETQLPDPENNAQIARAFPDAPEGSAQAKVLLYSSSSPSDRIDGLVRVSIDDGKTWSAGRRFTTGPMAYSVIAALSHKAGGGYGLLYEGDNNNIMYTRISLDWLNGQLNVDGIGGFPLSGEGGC
- EXPERIMENT_NOTES: Sialidase inhibition assay (Example 4)
- Type: biochemical
- EXPERIMENTAL_CONDITIONS: pH 5, read-out: Percentage inhibition (%) against BiNanH2, 0.1 mM of each inhibitor, substrate Neu5Acα2-3GalβpNP 0.3 mM
Kindly return met if reported inhibition at 100 µM is no lower than 20%; return not met if it is lower.

{"COMPOUND": "CC(=O)NC[C@@H](O)[C@@H](O)[C@@H]1OC(C(=O)O)=C[C@H](O)[C@H]1NC(C)=O", "CLASS_LABEL": "met"}
{"COMPOUND": "CC(=O)N[C@H]1[C@H]([C@H](O)[C@H](O)CO)OC(C(=O)O)=C[C@@H]1O [compound 6, reference compound]", "CLASS_LABEL": "met"}
{"COMPOUND": "CC(=O)N[C@@H]1C(O)C=C(C(=O)O)OC1[C@H](O)[C@H](O)CNC(=O)C1CC1 (stereo partly shown)", "CLASS_LABEL": "met"}
{"COMPOUND": "O=C(Cc1ccccc1)N[C@H]1[C@H]([C@H](O)[C@H](O)CO)OC(C(=O)O)=C[C@@H]1O", "CLASS_LABEL": "not met"}
{"COMPOUND": "O=C(CO)N[C@@H]1C(O)C=C(C(=O)O)OC1[C@H](O)[C@H](O)CO (stereo partly shown)", "CLASS_LABEL": "not met"}

query: Decide: inhibition at 100 µM of CC(=O)N[C@@H]1C(O)C=C(C(=O)O)OC1C[C@H](O)CO (stereo partly shown) >= 20%?
result: met

query: Item: CCCCC(=O)NC[C@@H](O)[C@@H](O)[C@@H]1OC(C(=O)O)=C[C@H](O)[C@H]1NC(C)=O
result: met

* * *

- STUDY_TARGET: SpNanA (Streptococcus pneumoniae)
- Sequence (P62575 54-1006): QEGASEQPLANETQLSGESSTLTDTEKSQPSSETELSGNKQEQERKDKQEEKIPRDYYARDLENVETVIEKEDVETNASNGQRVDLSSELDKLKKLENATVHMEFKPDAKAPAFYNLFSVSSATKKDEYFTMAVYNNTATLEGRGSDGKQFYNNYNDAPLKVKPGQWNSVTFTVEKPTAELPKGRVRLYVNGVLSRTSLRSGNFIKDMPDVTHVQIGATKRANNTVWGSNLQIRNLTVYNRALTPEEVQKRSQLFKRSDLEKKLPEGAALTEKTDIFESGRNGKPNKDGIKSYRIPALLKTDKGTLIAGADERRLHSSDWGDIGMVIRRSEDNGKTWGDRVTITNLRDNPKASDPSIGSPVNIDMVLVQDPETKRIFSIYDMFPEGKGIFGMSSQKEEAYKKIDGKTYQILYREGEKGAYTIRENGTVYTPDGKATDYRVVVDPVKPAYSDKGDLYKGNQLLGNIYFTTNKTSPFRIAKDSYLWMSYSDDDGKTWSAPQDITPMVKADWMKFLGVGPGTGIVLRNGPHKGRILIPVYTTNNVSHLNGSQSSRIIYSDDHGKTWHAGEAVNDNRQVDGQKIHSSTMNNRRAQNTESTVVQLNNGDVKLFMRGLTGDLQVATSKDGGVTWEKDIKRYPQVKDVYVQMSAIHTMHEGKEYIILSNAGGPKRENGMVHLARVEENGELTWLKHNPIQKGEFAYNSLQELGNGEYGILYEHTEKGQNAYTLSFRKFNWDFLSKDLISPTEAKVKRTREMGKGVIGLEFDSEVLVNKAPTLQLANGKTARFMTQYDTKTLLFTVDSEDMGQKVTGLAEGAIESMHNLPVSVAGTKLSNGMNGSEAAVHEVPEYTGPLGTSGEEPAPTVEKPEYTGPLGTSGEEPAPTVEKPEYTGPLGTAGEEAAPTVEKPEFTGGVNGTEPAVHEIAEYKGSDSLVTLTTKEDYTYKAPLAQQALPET
- EXPERIMENT_NOTES: Sialidase inhibition assay (Example 7)
- Format: biochemical
OBSERVED_PROPERTY: IC50

query: Which IC50 is listed for O=C(O)[C@@]12C[C@@H](O)[C@@H](NC3CCCCC3)C(O1)[C@@H]([C@H](O)CO)O2 ?
result: 500 to 1000 µM

* * *

- STUDY_TARGET: SpNanA (Streptococcus pneumoniae)
- EXPERIMENT_NOTES: Sialidase inhibition assay (Example 4)
- Format: biochemical
OBSERVED_PROPERTY: IC50 (µM)
Answer with a number only, understood to be in µM.

{"COMPOUND": "CC(=O)N[C@@H]1C(O)C=C(C(=O)O)OC1[C@H](O)[C@H](O)CNC(=O)C1CC1 (stereo partly shown)", "STUDY_TARGET": "SpNanA (Streptococcus pneumoniae)", "IC50 [µM]": 6.8}
{"COMPOUND": "CC(=O)NC[C@@H](O)[C@@H](O)[C@@H]1OC(C(=O)O)=C[C@H](O)[C@H]1NC(C)=O", "STUDY_TARGET": "SpNanA (Streptococcus pneumoniae)", "IC50 [µM]": 11}
{"COMPOUND": "CCCCC(=O)NC[C@@H](O)[C@@H](O)[C@@H]1OC(C(=O)O)=C[C@H](O)[C@H]1NC(C)=O", "STUDY_TARGET": "SpNanA (Streptococcus pneumoniae)", "IC50 [µM]": 10.5}

Proceeding to the next compound to report its IC50.
query: # returns recorded IC50 (system: SpNanA (Streptococcus pneumoniae)) for CC(=O)N[C@@H]1C(O)C=C(C(=O)O)OC1C[C@H](O)CO (stereo partly shown)
result: 10.7
